- System: OVCAR-8 ovarian
- Assay Overview: NCI tumour cell line growth inhibition, 48 h

[
  {
    "Compound": "CC1(C)CC(C)(C)C1=NNC(N)=O",
    "TGI": "> 100 µM"
  },
  {
    "Compound": "C/C=C(\\C)C(=O)O[C@H]1C=CC(=O)O[C@@H]1CC[C@H](O)[C@H](C)O",
    "TGI": "> 100 µM"
  },
  {
    "Compound": "CC1CC/C(=C\\c2ccc(Cl)cc2)C2OC(N)=C(C#N)C(c3ccc(Cl)cc3)=C12 (centres undefined)",
    "TGI": "27.4 µM"
  },
  {
    "Compound": "Oc1c([Si](c2ccccc2)(c2ccccc2)c2ccccc2)cc2ccccc2c1-c1c(O)c([Si](c2ccccc2)(c2ccccc2)c2ccccc2)cc2ccccc12",
    "TGI": "> 100 µM"
  },
  {
    "Compound": "COC(=O)C(Cc1ccccc1)NP(=O)(O)OCC1OC(n2cc(F)c(=O)[nH]c2=O)CC1O (centres undefined)",
    "TGI": "> 100 µM"
  },
  {
    "Compound": "Nc1ncnc2c1nnn2C1CCC(CP(=O)(O)O)C1 (centres undefined)",
    "TGI": "> 100 µM"
  },
  {
    "Compound": "CN1CC[C@@H](c2c(O)cc(O)c3c(=O)cc(-c4ccccc4Cl)oc23)[C@@H]1CO",
    "TGI": "> 10 µM"
  },
  {
    "Compound": "O=C(OCCN=c1c2ccccc2ccc2ccccc12)c1ccc([N+](=O)[O-])cc1",
    "TGI": "> 100 µM"
  },
  {
    "Compound": "COc1cc(C2C(Cl)C(=O)N2NC(=O)c2ccc(N)cc2)ccc1O (centres undefined)",
    "TGI": "47.4 µM"
  }
]

###

Property: TGI; scope: individual compounds
- Test system: SR leukemia
- Assay Overview: NCI tumour cell line growth inhibition, 48 h
Observed Property: TGI

[
  {
    "Compound": "CN1CC[C@@H](c2c(O)cc(O)c3c(=O)cc(-c4ccccc4Cl)oc23)[C@@H]1CO",
    "Observed Property": "TGI",
    "Result Value": "0.573 µM"
  },
  {
    "Compound": "CCCC(=O)NC(Nc1ccc(S(=O)(=O)Nc2nc(C)cc(C)n2)cc1)(C(F)(F)F)C(F)(F)F",
    "Observed Property": "TGI",
    "Result Value": "> 100 µM"
  },
  {
    "Compound": "O=C(Cn1c(C(=O)/C=C/c2cccs2)nc2ccccc21)c1ccc(Cl)cc1",
    "Observed Property": "TGI",
    "Result Value": "22 µM"
  },
  {
    "Compound": "CCN(C(=S)N[C@H](C(=O)N[C@@H](C)C(=O)OC)C(C)C)c1ccccc1",
    "Observed Property": "TGI",
    "Result Value": "52.7 µM"
  },
  {
    "Compound": "CS[C@]12C(=O)C[C@@]3(C)[C@@H](CC[C@]3(O)C(=O)CO)[C@@H]1CCC1=CC(=O)CC[C@@]12C",
    "Observed Property": "TGI",
    "Result Value": "> 100 µM"
  },
  {
    "Compound": "CC1=C2C(=CC(C)(C)C2O)C(=O)C(C)(O)C12CC2 (stereo unspecified)",
    "Observed Property": "TGI",
    "Result Value": "0.128 µM"
  },
  {
    "Compound": "COc1ccc(C(SC2C(O)C(CO)OC2n2ccc(N)nc2=O)(c2ccccc2)c2ccc(OC)cc2)cc1 (stereo unspecified)",
    "Observed Property": "TGI",
    "Result Value": "58 µM"
  },
  {
    "Compound": "O=C(Nc1nc2ccccc2s1)c1cc([N+](=O)[O-])ccc1Cl",
    "Observed Property": "TGI",
    "Result Value": "> 100 µM"
  },
  {
    "Compound": "COc1ccc(OC)c(-c2c(C#N)c(N)nc(N3CCOCC3)c2C#N)c1",
    "Observed Property": "TGI",
    "Result Value": "> 100 µM"
  },
  {
    "Compound": "CC1(c2ccc[n+](Cc3ccccc3)c2)OCCO1",
    "Observed Property": "TGI",
    "Result Value": "> 100 µM"
  },
  {
    "Compound": "COc1cccc(-n2ncc3c(N/N=C/c4ccncc4)ncnc32)c1",
    "Observed Property": "TGI",
    "Result Value": "> 25 µM"
  },
  {
    "Compound": "C1=C2/CC[C@H](Sc3ccccc3)[C@H]2C2(CCCCC/1)OCCO2",
    "Observed Property": "TGI",
    "Result Value": "> 100 µM"
  },
  {
    "Compound": "CC(=O)c1c(C(F)(F)F)n([O-])c2cc(Cl)c(Cl)cc2[n+]1=O",
    "Observed Property": "TGI",
    "Result Value": "0.0361 µM"
  },
  {
    "Compound": "CC1(C)CC(C)(C)C1=NNC(N)=O",
    "Observed Property": "TGI",
    "Result Value": "> 100 µM"
  },
  {
    "Compound": "CC[C@H](CO)Nc1nc(NCc2ccccc2)n2ncc(C(C)C)c2n1",
    "Observed Property": "TGI",
    "Result Value": "1.59 µM"
  },
  {
    "Compound": "COc1c2c(nc3ccccc13)-c1cc3c(c(=O)n1C2)COC(=O)C3(O)CC(=O)N1CCOCC1 (stereo unspecified)",
    "Observed Property": "TGI",
    "Result Value": "17.5 µM"
  },
  {
    "Compound": "CN(C)c1ccc2c(c1)OC(N)=C(C#N)C2c1ccc2c(c1)CCO2 (stereo unspecified)",
    "Observed Property": "TGI",
    "Result Value": "> 48.2 µM"
  },
  {
    "Compound": "CCc1ccc(NC(=O)COC(=O)c2cc([N+](=O)[O-])ccc2Sc2nnnn2C)cc1",
    "Observed Property": "TGI",
    "Result Value": "> 100 µM"
  },
  {
    "Compound": "C/C(Nc1ccc(F)cc1)=C1/CCOC1=O",
    "Observed Property": "TGI",
    "Result Value": "> 100 µM"
  },
  {
    "Compound": "CCOC(=O)c1cnc2oc3ccc(O)cc3c2c1-c1ccccc1",
    "Observed Property": "TGI",
    "Result Value": "> 100 µM"
  },
  {
    "Compound": "Cc1c(NC(=O)CSC(=S)N2CCN(Cc3ccccc3)CC2)c(=O)n(-c2ccccc2)n1C",
    "Observed Property": "TGI",
    "Result Value": "> 100 µM"
  }
]

###

- Tested on: OVCAR-8 ovarian
- Assay Overview: NCI tumour cell line growth inhibition, 48 h

[
  {
    "Compound": "CCOc1cc(C2CC(c3ccc(NS(=O)(=O)c4cc([N+](=O)[O-])ccc4C)cc3)=NN2c2ccc([N+](=O)[O-])cc2[N+](=O)[O-])ccc1O (centres undefined)",
    "TGI": "49 µM"
  },
  {
    "Compound": "COc1ccc(/C=N/N=C(\\N)NO)c(OC)c1",
    "TGI": "> 100 µM"
  },
  {
    "Compound": "Cc1cc(Cl)ccc1NC(=O)CC/C(CC(=O)C(C)C)=N\\NC(=O)C[n+]1ccccc1",
    "TGI": "> 100 µM"
  },
  {
    "Compound": "CCOC(=O)c1cnc2oc3ccc(O)cc3c2c1-c1ccccc1",
    "TGI": "> 100 µM"
  },
  {
    "Compound": "Cc1ccc(N2C(=O)C3C=CC(n4[nH]c(=O)n(Cc5ccccc5)c4=O)CC3C2=O)cc1 (centres undefined)",
    "TGI": "> 100 µM"
  },
  {
    "Compound": "CCOC(=O)C(=Cc1cccnc1C)C(=O)OCC",
    "TGI": "16.9 µM"
  },
  {
    "Compound": "C[C@@H]1CC[C@H]2C(C(O)CCCCC(O)C3=C(C(F)(F)F)O[C@@H]4O[C@@]5(C)CC[C@H]6[C@H](C)CC[C@@H]3[C@@]46OO5)=C(C(F)(F)F)O[C@@H]3O[C@@]4(C)CC[C@@H]1[C@]32OO4 (some centres undefined)",
    "TGI": "> 100 µM"
  },
  {
    "Compound": "O=c1cc(N2CCN(c3cc(=O)n4ccccc4n3)CC2)oc2ccccc12",
    "TGI": "96.9 µM"
  },
  {
    "Compound": "O=C(c1cc(Cl)ccc1Cl)N1CCN(C(=O)c2cc(Cl)ccc2Cl)CC1",
    "TGI": "> 100 µM"
  },
  {
    "Compound": "CCCOC(=O)N1CCN(/[N+]([O-])=N/Oc2ccc([N+](=O)[O-])cc2[N+](=O)[O-])CC1",
    "TGI": "72.8 µM"
  },
  {
    "Compound": "COc1ccc(-c2c(C#N)c(S)n(NS(=O)(=O)c3ccc(C)cc3)c(=O)c2C#N)cc1",
    "TGI": "74.8 µM"
  },
  {
    "Compound": "CCc1cccc(C)c1NC(=O)C(=O)Cc1nc2ccccc2s1",
    "TGI": "> 100 µM"
  },
  {
    "Compound": "CCOP(=O)(OCC)C1CC(n2cc(C)c(=O)[nH]c2=O)OC1CO (centres undefined)",
    "TGI": "> 100 µM"
  },
  {
    "Compound": "N#CC(c1nc2ccccc2nc1Cl)S(=O)(=O)c1ccccc1 (centres undefined)",
    "TGI": "> 100 µM"
  },
  {
    "Compound": "Cc1ccccc1NC(=O)C(=O)CC(=O)c1c(C)n([O-])c2ccccc2[n+]1=O",
    "TGI": "> 100 µM"
  },
  {
    "Compound": "CCCC(=O)NC(Nc1ccc(S(=O)(=O)Nc2nc(C)cc(C)n2)cc1)(C(F)(F)F)C(F)(F)F",
    "TGI": "> 100 µM"
  },
  {
    "Compound": "O=C(O)c1nc(-c2ccccc2)[nH]c1C(=O)O",
    "TGI": "29.7 µM"
  },
  {
    "Compound": "O=c1c2cc(I)ccc2nc(-c2cccs2)n1-c1ccc(O)cc1",
    "TGI": "29.4 µM"
  },
  {
    "Compound": "O=C(NN1C(=O)CSC12CCCC2)c1[nH]c2ccc(Br)cc2c1-c1ccccc1",
    "TGI": "> 100 µM"
  }
]

Hello, the source for this data is PubChem BioAssay (NCI), in case you need it.
